Where do these numbers come from? They come from PubChem BioAssay (Tox21).

# EXPERIMENTAL DETAILS: Caspase-3/7 induction in HepG2 cells by small molecules, qHTS cell viability counter screen (AID 1346981); further: nearly all actives have a fitted effect of over 30% in size
# EXPERIMENTAL CONTEXT: CellTiter-Fluor fluorescence, 17 h; series mostly up to 92.4 µM
Records with an inconclusive call do not appear. Calls of active or inactive are those of the source. The call rests on the fitted dose curve; in most records, active means well fitted cell-killing curve with a large enough effect in the repeat runs; inconclusive means weak or mixed curves, or effect the other way; inactive means flat fitted curve, though single readings scatter.
Outcome (select one): 1.0 (active), 0.0 (inactive)

c1ccc(Nc2ccccc2)cc1: 0.0
CCCCCCCCCC(=O)OC: 0.0
CC(C)OC=O: 0.0
CCCc1c(OCCCCc2nn[nH]n2)ccc(C(C)=O)c1O: 0.0
Nc1ncnc2nc[nH]c12: 0.0
OC1CCCCCCCCCCC1: 0.0
CN(C)CCN(Cc1cccs1)c1ccccn1: 0.0
CC1=CC2C3CC(C=C3C)C2C1 (stereo not given): 0.0
OCCO: 0.0
CCCCc1oc2ccccc2c1C(=O)c1cc(I)c(OCCN(CC)CC)c(I)c1: 1.0

What outcome does the record of this test show for C=C(C)C(=O)OCCOC(=O)C(=C)C ?
0.0

---

# EXPERIMENTAL DETAILS: qHTS RealTime-Glo MT Cell Viability Assay in HepG2 cells - 16 hour (AID 1224885); further: nearly all actives have a fitted effect of over 50% in size
# EXPERIMENTAL CONTEXT: RealTime-Glo luminescence; series mostly up to 76.8 µM
Results filed as inconclusive are left out. Calls of active or inactive are those of the source. Calls come from the whole dose curve; as a rule, active = well fitted cell-killing curve with a large enough effect in the repeat runs; inconclusive = weak or mixed curves; inactive = flat fitted curve, though single readings scatter.
Outcome (select one): active, inactive

O=C(/C=C/C=C/c1ccc2c(c1)OCO2)N1CCCCC1: inactive
COc1cccc2c1C(=O)c1c(O)c3c(c(O)c1C2=O)C[C@@](O)(C(=O)CO)C[C@@H]3O[C@H]1C[C@H](N)[C@H](O)[C@H](C)O1: inactive
CN(C)CCN(Cc1cccs1)c1ccccn1: inactive
O=c1oc(=O)c2cc3c(=O)oc(=O)c3cc12: inactive
O=CCc1ccccc1: inactive
CC(=O)c1ccccn1: inactive
O=Cc1ccccc1O: inactive
COC(=O)Nc1nc2ccc(S(=O)c3ccccc3)cc2[nH]1 (stereo unspecified): inactive

What outcome does the record of this test show for CC(=O)CC/C=C(\C)CCC=C(C)C ?
inactive

What outcome does the record of this test show for Oc1ccc(O)cc1 ?
inactive

---

# EXPERIMENTAL DETAILS: qHTS assay to identify small molecule antagonists of the estrogen receptor alpha (ER-alpha) signaling pathway using the BG1 cell line in the presence of 0.1 nM 17-beta-estradiol - cell viability counter screen (AID 1259241); further: nearly all actives have a fitted effect of over 40% in size
# EXPERIMENTAL CONTEXT: VM7Luc4E2 (BG1) viability, CellTiter-Fluor protease, 22 h, 0.1 nM estradiol agonist added; series mostly up to 92.4 µM
Records with an inconclusive call do not appear. Activity calls are given as the source filed them. The call rests on the fitted dose curve; in most records, active means well fitted cell-killing curve with a large enough effect in the repeat runs; inconclusive means weak or mixed curves, or effect the other way; inactive means flat fitted curve, though single readings scatter.
RECORDED ENDPOINT: outcome

CN1C(C(=O)Nc2ccccn2)=C(O)c2ccccc2S1(=O)=O: inactive
O=C(Nc1ccc(Cl)cc1)Nc1ccc(Cl)c(Cl)c1: inactive
O=CCc1ccccc1: inactive
O=Cc1ccccc1O: inactive
Cc1cccc(C(=O)O)c1: inactive

List outcome for every entry below, keeping the order given.
1. CCCCC(CC)COC(=O)c1ccc(N(C)C)cc1 (stereo not drawn)
2. CCCCC(CC)COP(=O)(OCC(CC)CCCC)OCC(CC)CCCC (stereo not drawn)

["inactive", "inactive"]

List outcome for every entry below, keeping the order given.
1. CN(C)C(=N)N=C(N)N
2. c1ccc2cc(Nc3ccc(Nc4ccc5ccccc5c4)cc3)ccc2c1
3. O=C1c2cccc(O)c2C(=O)c2c(O)cccc21
4. CC(C)=CCC/C(C)=C\CO

1. inactive
2. inactive
3. inactive
4. inactive

List outcome for every entry below, keeping the order given.
1. CC(=O)C1(C)CC2=C(CCCC2(C)C)CC1C (stereo not drawn)
2. CC1=CC2C3CC(C=C3C)C2C1 (stereo not drawn)
3. Cc1c(OCC(F)(F)F)ccnc1CS(=O)c1nc2ccccc2[nH]1 (stereo not drawn)

1. inactive
2. inactive
3. inactive
